experiment: Agonist activity at ComD2 receptor in Streptococcus pneumoniae TIGR4 harboring pcomX/lacZ reporter gene incubated for 30 mins by ONPG based beta-galactosidase assay
Non-standard residues stand in square brackets, D forms with d. Residues, ends and D or L forms follow the SMILES beside them. NMeR = CN[C@@H](CCCNC(=N)N)C(=O)O; NMeF = CN[C@@H](Cc1ccccc1)C(=O)O; NMeD = CN[C@@H](CC(=O)O)C(=O)O; NMeS = CN[C@@H](CO)C(=O)O
List of EC50 values.
Field: numeric (µM). Do not append units.

As a guide, the following entries are already answered.
CC[C@H](C)[C@H](NC(=O)[C@H](CCCNC(=N)N)NC(=O)[C@H](CCSC)NC(=O)[C@@H](N)CCC(=O)O)C(=O)N[C@@H](CO)C(=O)N(C)[C@@H](CCCNC(=N)N)C(=O)N[C@H](C(=O)N[C@H](C(=O)N[C@@H](CC(C)C)C(=O)N[C@@H](CC(=O)O)C(=O)N[C@@H](Cc1ccccc1)C(=O)N[C@@H](CC(C)C)C(=O)N[C@@H](Cc1ccccc1)C(=O)O)[C@@H](C)CC)[C@@H](C)CC (H-EMRIS[NMeR]IILDFLF-OH) : 0.56
CC[C@H](C)[C@H](NC(=O)[C@H](CCCNC(=N)N)NC(=O)[C@H](CCSC)NC(=O)[C@@H](N)CCC(=O)O)C(=O)N[C@@H](CO)C(=O)N[C@@H](CCCNC(=N)N)C(=O)N[C@H](C(=O)N[C@H](C(=O)N[C@@H](CC(C)C)C(=O)N[C@@H](CC(=O)O)C(=O)N[C@@H](Cc1ccccc1)C(=O)N[C@@H](CC(C)C)C(=O)N(C)[C@@H](Cc1ccccc1)C(=O)O)[C@@H](C)CC)[C@@H](C)CC (H-EMRISRIILDFL[NMeF]-OH) : 0.027
CC[C@H](C)[C@H](NC(=O)[C@H](CCCNC(=N)N)NC(=O)[C@H](CO)N(C)C(=O)[C@@H](NC(=O)[C@H](CCCNC(=N)N)NC(=O)[C@H](CCSC)NC(=O)[C@@H](N)CCC(=O)O)[C@@H](C)CC)C(=O)N[C@H](C(=O)N[C@@H](CC(C)C)C(=O)N[C@@H](CC(=O)O)C(=O)N[C@@H](Cc1ccccc1)C(=O)N[C@@H](CC(C)C)C(=O)N[C@@H](Cc1ccccc1)C(=O)O)[C@@H](C)CC (H-EMRI[NMeS]RIILDFLF-OH) : 0.55

Proceed to the following item.
If you can, please state the reported EC50 value of CC[C@H](C)[C@H](NC(=O)[C@H](CCCNC(=N)N)NC(=O)[C@H](CCSC)NC(=O)[C@@H](N)CCC(=O)O)C(=O)N[C@@H](CO)C(=O)N[C@@H](CCCNC(=N)N)C(=O)N[C@H](C(=O)N[C@H](C(=O)N[C@@H](CC(C)C)C(=O)N(C)[C@@H](CC(=O)O)C(=O)N[C@@H](Cc1ccccc1)C(=O)N[C@@H](CC(C)C)C(=O)N[C@@H](Cc1ccccc1)C(=O)O)[C@@H](C)CC)[C@@H](C)CC (H-EMRISRIIL[NMeD]FLF-OH) .
0.34

---

tested on: Streptococcus pneumoniae D39; experiment: Agonist activity at ComD1 receptor in Streptococcus pneumoniae D39 harboring pcomX/lacZ reporter gene at 10 uM incubated for 30 mins by ONPG based beta-galactosidase assay relative to native CSP1
The source made the active and inactive calls. The calls are words filed in the database; no cut-off is given here. Non-standard residues stand in square brackets, D forms with d. Residues, ends and D or L forms follow the SMILES beside them. NMeR = CN[C@@H](CCCNC(=N)N)C(=O)O; NMeE = CN[C@@H](CCC(=O)O)C(=O)O
result_type: Activity

CC[C@H](C)[C@H](NC(=O)[C@H](CCCNC(=N)N)NC(=O)[C@H](CCSC)NC(=O)[C@H](CCC(=O)O)NC)C(=O)N[C@@H](CO)C(=O)N[C@@H](CCCNC(=N)N)C(=O)N[C@H](C(=O)N[C@H](C(=O)N[C@@H](CC(C)C)C(=O)N[C@@H](CC(=O)O)C(=O)N[C@@H](Cc1ccccc1)C(=O)N[C@@H](CC(C)C)C(=O)N[C@@H](Cc1ccccc1)C(=O)O)[C@@H](C)CC)[C@@H](C)CC (H-[NMeE]MRISRIILDFLF-OH) : inactive
CC[C@H](C)[C@H](NC(=O)[C@H](Cc1ccccc1)NC(=O)[C@H](CC(=O)O)NC(=O)[C@H](CCCNC(=N)N)NC(=O)[C@H](Cc1ccccc1)NC(=O)[C@H](Cc1ccccc1)NC(=O)[C@H](CCCCN)NC(=O)[C@H](CO)NC(=O)[C@H](CC(C)C)NC(=O)[C@H](CCCNC(=N)N)N(C)C(=O)[C@H](CCSC)NC(=O)[C@@H](N)CCC(=O)O)C(=O)N[C@@H](CC(C)C)C(=O)N[C@@H](CCC(N)=O)C(=O)N[C@@H](CCCNC(=N)N)C(=O)O (H-EM[NMeR]LSKFFRDFILQR-OH) : inactive

The reported numbers originate from ChEMBL document CHEMBL4364271.
